- target: c-Myc-Max heterodimers (Homo sapiens, UniProt P01106)
- Construct: c-Myc bHLH-ZIP domain (residues 353-437); His6-TEV protease substrate tag; made in house; host or cells: bacteria (pET151 vector for Myc)
- Sequence (P01106 368-452, one chain of several): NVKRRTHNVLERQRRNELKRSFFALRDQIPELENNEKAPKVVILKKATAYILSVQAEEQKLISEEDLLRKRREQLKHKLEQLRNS
- assay-text: Electrophoretic mobility shift assay (EMSA) of c-Myc-Max dimerization and DNA binding
- protocol-conditions: Table 11; 100 uM, EMSA; read-out: % Inhibition of c-Myc-Max Dimerization
observable: inhibition at 100 µM

Record O=C(O)c1cc([N+](=O)[O-])ccc1Nc1ccccc1-c1ccccc1 [SF-3-103B] , field inhibition at 100 µM: ≥ 33%

Record NC(=O)c1ccc(Nc2ccccc2-c2ccccc2)cc1 [SF-3-093A] , field inhibition at 100 µM: 0%

Record NC(=O)c1cc([N+](=O)[O-])ccc1Nc1ccccc1-c1ccccc1 [SF-3-103A] , field inhibition at 100 µM: 0%

Record N#Cc1ccc(Nc2ccccc2-c2ccccc2)cc1 , field inhibition at 100 µM: 2%

---

Listed compounds paired with reported inhibition at 100 µM
- target: c-Myc-Max heterodimers (Homo sapiens)
- Construct: c-Myc bHLH-ZIP domain (residues 353-437); His6-TEV protease substrate tag; made in house; host or cells: bacteria (pET151 vector for Myc)
- assay-text: Electrophoretic mobility shift assay (EMSA) of c-Myc-Max dimerization and DNA binding
- protocol-conditions: Table 10; 100 μM small-molecule, EMSA; read-out: % Inhibition of c-Myc-Max Dimerization
- Method: The ability of a small-molecule to interfere with c-Myc-Max dimerization is conveniently assessed through the disruption of the c-Myc-Max/DNA ternary complex by an electrophoretic mobility shift assay (EMSA) using fluorescently-labelled DNA, and subsequently quantified by densitometry.(23) Accordingly, a 100-member library was screened for the ability to disrupt the c-Myc-Max dimer. These were performed essentially as described previously (23). […]
A number alone suffices; assume %.

Consider the following illustrative entries.
Here CC(C)c1ccc(-c2cc(C(=O)O)ccc2Nc2ccc([N+](=O)[O-])c3nonc23)cc1 [Compound 3jc53-11] was tested on c-Myc-Max heterodimers (Homo sapiens), and its inhibition at 100 µM came to 0

Here N#Cc1ccc(-c2cc(Nc3ccc([N+](=O)[O-])c4nonc34)ccc2C(=O)O)cc1 [Compound 3jc62-6] was tested on c-Myc-Max heterodimers (Homo sapiens), and its inhibition at 100 µM came to 25

Here O=C(O)c1ccc(Nc2ccc([N+](=O)[O-])c3nonc23)c(-c2ccccc2O)c1 [Compound 3jc53-13] was tested on c-Myc-Max heterodimers (Homo sapiens), and its inhibition at 100 µM came to 0

Here Cc1ccccc1-c1cc(Nc2ccc([N+](=O)[O-])c3nonc23)ccc1C(=O)O [Compound 3jc62-1] was tested on c-Myc-Max heterodimers (Homo sapiens), and its inhibition at 100 µM came to 0

Here is another compound to look at.
Here CCc1ccc(-c2cc(C(=O)O)ccc2Nc2ccc([N+](=O)[O-])c3nonc23)cc1 [Compound 3jc53-10] was tested on c-Myc-Max heterodimers (Homo sapiens), and its inhibition at 100 µM came to 34
